- System: tet operator sequence
- assay summary: β-galactosidase activity of a tetracycline-regulated promoter in transformed E. coli with revTetR, in the presence and absence of anhydrotetracycline (atc)
- Type: cell-based, Escherichia coli
- protocol conditions: RevTetR isolate cultured in the absence of anhydrotetracycline (ATC)
quantity kind: β-Galactosidase Activity, Cultured Without ATC
Please give the numeric answer without any surrounding text.

[
  {
    "molecule": "TetRrev4/6-7: revTetR(BD) L55L L60V A97V V99G (protein, Modified tetracycline repressor, revTetR(BD) L55L L60V A97V V99G) MSRLDKSKVINSALELLNEVGIEGLTTRKLAQKLGVEQPTLYWHVKNKRALLDALAVEIVARHHDYSLPAAGESWQSFLRNNAMSFRRALLRYRDGVKGHLGTRPDEKQYDTVETQLRFMTENGFSLRDGLYAISAVSHFTLGAVLEQQEHTAALTDRPAAPDENLPPLLREALQIMDSDDGEQAFLHGLESLIRGFEVQLTALLQIV",
    "numeric value": 86.036
  }
]

Then this molecule:
Record TetRrevAF1/8: revTetR(BD) G24G Y93N L101F G102D (protein, Modified tetracycline repressor, revTetR(BD) G24G Y93N L101F G102D) MSRLDKSKVINSALELLNEVGIEGLTTRKLAQKLGVEQPTLYWHVKNKRALLDALAVEILARHHDYSLPAAGESWQSFLRNNAMSFRRALLRNRDGAKVHFDTRPDEKQYDTVETQLRFMTENGFSLRDGLYAISAVSHFTLGAVLEQQEHTAALTDRPAAPDENLPPLLREALQIMDSDDGEQAFLHGLESLIRGFEVQLTALLQIV . Reported β-Galactosidase Activity, Cultured Without ATC: 42.088

Where do these numbers come from? They come from patent US20030186281A1.
